- test-name: Pharmacokinetic evaluation experiment in mice (intravenous or intraperitoneal injection of compound 6)
- Type: in vivo, C57BL/6 mice
- measurement-setup: male, C57BL/6, mouse, plasma, intravenous injection, 1 mg/kg
measured-attribute: clearance (mL/min/kg)
Kindly answer with a numeric value in mL/min/kg, unit omitted.

Please report the recorded clearance for `O=C(Nc1cnc(-c2cc3oc(C4CC4)cc3cc2Cl)cn1)c1c(F)cccc1F` .
2.05

----------
- test-name: Pharmacokinetic evaluation experiment in mice (intravenous or intraperitoneal injection of compound 6)
- Format: in vivo, C57BL/6 mice
- measurement-setup: male, C57BL/6, mouse, plasma, ip, intraperitoneal injection, 3 mg/kg
measured-attribute: AUC(0-t) (µM·h)
Kindly answer with a numeric value in µM·h, unit omitted.

Please report the recorded AUC(0-t) for O=C(Nc1cnc(-c2cc3oc(C4CC4)cc3cc2Cl)cn1)c1c(F)cccc1F [Compound 6] .
62.7

----------
- test-name: Pharmacokinetic evaluation in mice (intravenous administration of compound 18 or 22, 50 mg/kg)
- Type: in vivo, C57BL/6 mice
- measurement-setup: male, C57BL/6, mouse, plasma, iv, 50 mg/kg, administered compound itself in plasma, 50 mg/kg intravenous, mice
measured-attribute: AUC(0-t)

Please report the recorded AUC(0-t) for `O=C(c1c(F)cccc1F)N(COP(=O)(O)O)c1cnc(-c2cc3oc(C4CC4)cc3cc2Cl)cn1` .
57.2 µM·h

----------
- test-name: Pharmacokinetic evaluation experiment in mice (intravenous or intraperitoneal injection of compound 6)
- Assay type: in vivo, C57BL/6 mice
- measurement-setup: male, C57BL/6, mouse, plasma, intravenous injection, 1 mg/kg
measured-attribute: AUC(0-t) (µM·h)
Kindly answer with a numeric value in µM·h, unit omitted.

Please report the recorded AUC(0-t) for `O=C(Nc1cnc(-c2cc3oc(C4CC4)cc3cc2Cl)cn1)c1c(F)cccc1F` .
15.6

----------
- test-name: Pharmacokinetic evaluation in mice (intravenous administration of compound 18 or 22, 50 mg/kg)
- Assay type: in vivo, C57BL/6 mice
- measurement-setup: male, C57BL/6, mouse, plasma, iv, 50 mg/kg, administered compound itself in plasma, 50 mg/kg intravenous, mice
measured-attribute: clearance (mL/min/kg)
Kindly answer with a numeric value in mL/min/kg, unit omitted.

Please report the recorded clearance for O=C(c1c(F)cccc1F)N(COP(=O)(O)O)c1cnc(-c2cc3oc(C4CC4)cc3cc2Cl)cn1 [Compound 18] .
25.1

----------
- test-name: Pharmacokinetic evaluation in mice (intravenous administration of compound 18 or 22, 50 mg/kg)
- Type: in vivo, C57BL/6 mice
- measurement-setup: male, C57BL/6, mouse, plasma, iv, 50 mg/kg, administered compound itself in plasma, 50 mg/kg intravenous, mice
- Method: Purpose of the experiment: male C57BL/6 mice were used as test animals, and the LC/MS/MS method was applied to determine the plasma drug concentrations of the compounds at different time points after intravenous administration. The pharmacokinetic behavior of the compounds in mice was studied, and their pharmacokinetic characteristics were evaluated. Drug preparation: an appropriate amount of sample was weighed to prepare 5 mg/mL of clear solution with sterile normal saline. […]
measured-attribute: half-life (h)
Kindly answer with a numeric value in h, unit omitted.

Please report the recorded half-life for `O=C(c1c(F)cccc1F)N(COP(=O)(O)O)c1cnc(-c2cc3oc(C4CC4)cc3cc2Cl)cn1` .
2.49
